Origin of values: paper PMC10488055

target: APN (Homo sapiens, UniProt P15144); construct: purchased Sigma-Aldrich; experiment: Kinetic assay (Lineweaver–Burk) on APN; format: biochemical; details: APN; calculated by method of ref 27; read-out: Kik
Sequence (P15144 whole entry, species assumed): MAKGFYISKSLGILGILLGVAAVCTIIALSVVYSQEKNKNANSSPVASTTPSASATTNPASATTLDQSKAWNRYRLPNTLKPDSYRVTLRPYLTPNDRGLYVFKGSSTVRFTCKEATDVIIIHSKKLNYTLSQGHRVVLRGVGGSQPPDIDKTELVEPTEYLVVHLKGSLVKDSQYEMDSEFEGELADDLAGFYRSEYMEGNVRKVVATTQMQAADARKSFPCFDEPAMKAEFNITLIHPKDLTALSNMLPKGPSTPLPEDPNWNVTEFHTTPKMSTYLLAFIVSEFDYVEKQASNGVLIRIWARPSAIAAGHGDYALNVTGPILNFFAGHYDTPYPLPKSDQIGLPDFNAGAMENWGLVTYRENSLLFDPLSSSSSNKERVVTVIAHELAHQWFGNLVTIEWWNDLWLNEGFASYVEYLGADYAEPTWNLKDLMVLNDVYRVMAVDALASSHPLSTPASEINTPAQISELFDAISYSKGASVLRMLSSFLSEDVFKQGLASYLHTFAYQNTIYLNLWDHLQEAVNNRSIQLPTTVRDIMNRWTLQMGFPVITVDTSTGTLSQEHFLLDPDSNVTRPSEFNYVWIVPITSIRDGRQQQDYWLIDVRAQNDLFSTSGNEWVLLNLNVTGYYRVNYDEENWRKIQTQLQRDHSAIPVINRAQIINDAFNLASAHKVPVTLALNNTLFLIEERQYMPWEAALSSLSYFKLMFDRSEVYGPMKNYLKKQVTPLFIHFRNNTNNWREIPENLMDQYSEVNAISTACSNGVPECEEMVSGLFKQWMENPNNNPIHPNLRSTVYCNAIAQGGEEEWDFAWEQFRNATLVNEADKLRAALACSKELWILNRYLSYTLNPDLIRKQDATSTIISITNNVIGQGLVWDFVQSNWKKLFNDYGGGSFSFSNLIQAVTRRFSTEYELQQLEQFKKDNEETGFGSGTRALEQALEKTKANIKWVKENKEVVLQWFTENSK
I'd be grateful if you could share measured pKi for these entries.
Give bare numbers, as −log10 of the molar value.

>>> recorded_value("O=c1c(O)c(-c2ccc(O)cc2)oc2cc(O)cc(O)c12")
1.38

With those in mind, consider the next compound.
QUERY: If you can, please state the reported pKi value of C=CCSSSCC=C [DATS, diallyl trisulfide] .
RESULT: 1.16

---

I'd be grateful if you could share measured Vmax for these entries.
Target: APN (Homo sapiens, UniProt P15144)
Construct: purchased Sigma-Aldrich
Experiment: Kinetic assay (Lineweaver–Burk) on APN
Type: biochemical
Settings: APN treated with compound 2 mM
Experimental: Lineweaver–Burk plots were employed to analyze the inhibition of the target enzyme. […] These reactions were conducted in a total volume of 80 μL. by a previously described method. The Michaelis–Menten constant (Km) and maximal velocity (Vmax) were calculated using the x and y intercepts, respectively. […] Additionally, the Kik and Kiv inhibition constants were calculated using previously described methods.
One number for each entry, in mU/min.

>>> recorded_value("C=CCSSSCC=C [DATS, diallyl trisulfide]")
0.294

Count: 2. Required value per item: Vmax.
1. O=c1c(O)c(-c2ccc(O)cc2)oc2cc(O)cc(O)c12
2. C=CCSSCC=C [DADS, diallyl disulfide]

RESULT:
1: 0.284; 2: 0.306

Count: 2. Required value per item: Vmax.
1. C/C=C/[S@+]([O-])C[C@H](N)C(=O)O
2. C[S@+]([O-])C[C@H](N)C(=O)O

RESULT:
1. 0.267
2. 0.250
